- TARGET OF ASSAY: human Factor XIIa (Homo sapiens (Human), UniProt P00748)
- Sequence (P00748 373-615): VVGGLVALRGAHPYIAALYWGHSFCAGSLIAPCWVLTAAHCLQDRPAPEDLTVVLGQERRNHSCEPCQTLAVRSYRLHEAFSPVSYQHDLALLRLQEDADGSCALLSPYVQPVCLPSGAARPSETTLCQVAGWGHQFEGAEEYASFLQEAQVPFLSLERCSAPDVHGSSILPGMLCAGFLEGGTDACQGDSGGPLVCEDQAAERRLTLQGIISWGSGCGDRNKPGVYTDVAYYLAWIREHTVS
PROPERTY NAME: pIC50
Note: pIC50 values are expressed as the negative base-10 logarithm of concentration in M.

Exercise: State the recorded pIC50 for this entry: CC(C)N[C@H](CCCCN1CCCCC1)C(=O)N1CCN(C2=N[C@@H](C)[C@H](c3ccccc3)O2)C[C@H]1C(=O)NCc1cc(F)c(CN)c(F)c1
Key: 7.35

Exercise: Next compound: COc1cc(CNC(=O)[C@@H]2CN(C(=O)Oc3ccccc3Cl)CCN2C(=O)[C@@H](CCCCNS(C)(=O)=O)NC2CCC3(CC2)CCN(Cc2ccccc2)C3)ccc1CN (stereo partly drawn)
Key: 8.08

Exercise: Next compound: C[C@@H]1N=C(N2CCN(C(=O)[C@@H](CCCCN(C)C)NC3CCC4(CC3)CCN(Cc3ccccc3)C4)[C@H](C(=O)NCc3cccs3)C2)O[C@H]1c1ccccc1 (stereo partly drawn)
Key: 9.10

Exercise: Next compound: CC(C)N[C@H](CCCCN1CCCCC1)C(=O)N1CCN(C2=N[C@@H](C)[C@H](c3ccccc3)O2)C[C@H]1C(=O)NCc1ccc(CN)cc1
Key: 7.33

Exercise: Next compound: Cc1ccc(OC(=O)N2CCN(C(=O)[C@@H](CCCCNC(C)C)NC3CCCCC3)[C@H](C(=O)NCc3cccs3)C2)c(Cl)c1C
Key: 9.15

Exercise: Next compound: CC(C)N[C@H](CCCCN1CCCCC1)C(=O)N1CCN(C2=N[C@@H](C)[C@H](c3ccccc3)O2)C[C@H]1C(=O)NCc1cccs1
Key: 8.42

Exercise: Next compound: C[C@@H]1N=C(N2CCN(C(=O)[C@@H](CCCCNS(C)(=O)=O)NC3CCCCC3)[C@H](C(=O)NCc3cccs3)C2)O[C@H]1c1ccccc1C#N
Key: 7.73

Exercise: Next compound: Cc1ccc(OC(=O)N2CCN(C(=O)[C@@H](CCCCN3CCCC3)NC3CCC4(CC3)CCN(Cc3ccccc3)C4)[C@H](C(=O)NCc3cccs3)C2)c(Cl)c1C (stereo partly drawn)
Key: 9.00

Exercise: Next compound: CC(C)N[C@H](CCCCN1CCCCC1)C(=O)N1CCN(C2=N[C@@H](C)[C@H](c3ccccc3)O2)C[C@H]1C(=O)NCc1cc2cnccc2s1
Key: 8.41

Exercise: Next compound: CS(=O)(=O)NCCCC[C@@H](NC1CCCCC1)C(=O)N1CCN(C(=O)Oc2ccc3ccccc3c2Cl)C[C@H]1C(=O)NCc1cccs1
Key: 7.70

Exercise: Next compound: CC(C)N[C@H](CCCCN1CCCCC1)C(=O)N1CCN(C2=N[C@@H](C)[C@H](c3ccccc3)O2)C[C@H]1C(=O)NCc1cccc(Cl)c1
Key: 8.18

Exercise: Next compound: Cc1ccc(OC(=O)N2CCN(C(=O)[C@H](N)CCCCN3CCCCC3)[C@H](C(=O)NCc3cccs3)C2)c(Cl)c1C
Key: 8.30

Exercise: Next compound: C[C@@H]1N=C(N2CCN(C(=O)[C@@H](CCCCNS(C)(=O)=O)NC3CCC4(CC3)CCN(Cc3ccccc3)C4)[C@H](C(=O)NCc3cccs3)C2)O[C@H]1c1ccccc1 (stereo partly drawn)
Key: 7.99

Exercise: Next compound: NCc1ccc(CNC(=O)[C@@H]2CN(C(=O)Oc3ccccc3Cl)CCN2C(=O)[C@@H](CC2CCCCC2)NC2CCCCC2)cc1
Key: 8.23

Exercise: Next compound: COc1cc(CNC(=O)[C@@H]2CN(C(=O)Oc3ccc4ccccc4c3Cl)CCN2C(=O)[C@@H](CCCCN(C)C)NC2CCC(CN)CC2)ccc1CN (stereo partly drawn)
Key: 8.54

Exercise: Next compound: CN(C)CCCC[C@H](C(=O)N1CCN(C2=NC(C)(C)C(c3ccccc3)O2)C[C@H]1C(=O)NCc1ccc2[nH]cc(Cl)c2c1)N(C)C (stereo partly drawn) [Example 146]
Key: 8.24

Exercise: Next compound: CN(C)CCCC[C@@H](NC1CCC2(CC1)CCN(Cc1ccccc1)C2)C(=O)N1CCN(C(=O)Oc2ccccc2Cl)C[C@H]1C(=O)NCc1cccs1 (stereo partly drawn) [Example 90]
Key: 9.15

Exercise: Next compound: O=C(NCc1cccs1)[C@@H]1CN(C(=O)Oc2ccccc2Cl)CCN1C(=O)[C@H](NC1CCCCC1)C1CCN(S(=O)(=O)C2CC2)CC1
Key: 8.77

Exercise: Next compound: O=C(NCc1cccs1)[C@@H]1CN(C(=O)Oc2ccccc2Cl)CCN1C(=O)[C@@H](CCCCN1CCCCC1)NC1CCC2(CC1)CCN(Cc1ccccc1)C2 (stereo partly drawn)
Key: 9.05

Exercise: Next compound: O=C(NCc1cccs1)[C@@H]1CN(C(=O)Oc2cccc3cncnc23)CCN1C(=O)[C@@H](CC1CCCCC1)NC1CCCCC1
Key: 8.35

Exercise: Next compound: CN(C)CCCC[C@H](C(=O)N1CCN(C2=NC(C)(C)C(c3ccccc3)O2)C[C@H]1C(=O)NCc1cccc(Cl)c1)N(C)C (stereo partly drawn)
Key: 7.28

Exercise: Next compound: C[C@H]1N=C(N2CCN(C(=O)[C@@H](CCCCNS(C)(=O)=O)NC3CCCCC3)[C@H](C(=O)NCc3cccs3)C2)O[C@H]1c1ccccc1
Key: 7.87

Exercise: Next compound: C[C@@H]1N=C(N2CCN(C(=O)[C@H](NC3CCC(C(N)=O)CC3)[C@H]3CC[C@H](N4CCCCC4)CC3)[C@H](C(=O)NCc3cccs3)C2)O[C@H]1c1ccccc1 (stereo partly drawn)
Key: 8.82

Exercise: Next compound: O=C(NCc1cccs1)[C@@H]1CN(C(=O)Oc2cccc3cccnc23)CCN1C(=O)[C@@H](CC1CCCCC1)NC1CCCCC1
Key: 8.24
